assay: Pharmacokinetics (plasma and lung tissue) after single and 5-day repeat oral dosing in female 129S1 mice; details: female, 129S1, mouse, in vivo, 250 mg/kg
OBSERVATION TYPE: concentration at 8 hr
Units required after the number.

Inquiry: Query (molecule): Cc1c(-c2ccc(O)cc2)n(Cc2ccc(OCCN3CCCCC3)cc2)c2ccc(O)cc12 [Pipendoxifene] ; field requested: concentration at 8 hr
Reply text: 121 ng/mL

###

assay: Pharmacokinetics (plasma, lung at 24 h) after single oral dosing in male Sprague-Dawley rats; conditions: male, Sprague-Dawley, rat, in vivo, po, 1000 mg/kg, AUC∞, male SD rat plasma, single oral 1000 mg/kg (Group 4), one outlier excluded, mean
OBSERVATION TYPE: AUC(0-inf) (ng·h/mL)
Numbers only here, please. The scale is ng·h/mL.

Inquiry: Query (compound): Cc1c(-c2ccc(O)cc2)n(Cc2ccc(OCCN3CCCCC3)cc2)c2ccc(O)cc12 [Pipendoxifene] ; field requested: AUC(0-inf)
Reply text: 6880

###

assay: Pharmacokinetics (plasma and lung tissue) after single and 5-day repeat oral dosing in female 129S1 mice; conditions: female, 129S1, mouse, in vivo, po, 250 mg/kg, AUClast ± SE, plasma; 250 mg/kg PO multiple, 5-day, dose
OBSERVATION TYPE: AUC(0-t) (ng·h/mL)
Numbers only here, please. The scale is ng·h/mL.

Inquiry: Query (molecule): Cc1c(-c2ccc(O)cc2)n(Cc2ccc(OCCN3CCCCC3)cc2)c2ccc(O)cc12 [Pipendoxifene] ; field requested: AUC(0-t)
Reply text: 11600

###

assay: Pharmacokinetics (plasma and lung tissue) after single and 5-day repeat oral dosing in female 129S1 mice; conditions: female, 129S1, mouse, in vivo, po, 50 mg/kg
OBSERVATION TYPE: Cmax at 5 day (ng/g)
Numbers only here, please. The scale is ng/g.

Inquiry: Query (molecule): Cc1c(-c2ccc(O)cc2)n(Cc2ccc(OCCN3CCCCC3)cc2)c2ccc(O)cc12 [Pipendoxifene] ; field requested: Cmax at 5 day
Reply text: 5610

###

test: Pharmacokinetics (plasma, lung at 24 h) after single oral dosing in male Sprague-Dawley rats; details: male, Sprague-Dawley, rat, in vivo, po, 500 mg/kg, t1/2, male SD rat plasma, single oral 500 mg/kg (Group 2), mean
OBSERVATION TYPE: half-life (h)
Numbers only here, please. The scale is h.

Inquiry: Query (compound): Cc1c(-c2ccc(O)cc2)n(Cc2ccc(OCCN3CCCCC3)cc2)c2ccc(O)cc12 [Pipendoxifene] ; field requested: half-life
Reply text: 5.2

###

experiment: in vivo; conditions: male, Sprague-Dawley, rat, po, 1000 mg/kg, Plasma concentration
OBSERVATION TYPE: concentration at 4 h (ng/mL)
Numbers only here, please. The scale is ng/mL.

Inquiry: Query (compound): Cc1c(-c2ccc(O)cc2)n(Cc2ccc(OCCN3CCCCC3)cc2)c2ccc(O)cc12 [Pipendoxifene] ; field requested: concentration at 4 h
Reply text: 335

###

assay: Pharmacokinetics (plasma, lung at 24 h) after single oral dosing in male Sprague-Dawley rats; conditions: male, Sprague-Dawley, rat, in vivo, po, 750 mg/kg, AUC∞, male SD rat plasma, single oral 750 mg/kg (Group 3), individual rats 456, 457, 458
OBSERVATION TYPE: AUC(0-inf) (ng·h/mL)
Numbers only here, please. The scale is ng·h/mL.

Inquiry: Query (compound): Cc1c(-c2ccc(O)cc2)n(Cc2ccc(OCCN3CCCCC3)cc2)c2ccc(O)cc12 [Pipendoxifene] ; field requested: AUC(0-inf)
Reply text: 7920

###

test: Pharmacokinetics (plasma, lung at 24 h) after single oral dosing in male Sprague-Dawley rats; conditions: male, Sprague-Dawley, rat, plasma, po, 500 mg/kg, Plasma concentration, male SD rat, single oral 500 mg/kg (Group 2), 8 hr, individual rats 453, 454, 455
OBSERVATION TYPE: concentration at 8 h (ng/mL)
Numbers only here, please. The scale is ng/mL.

Inquiry: Query (molecule): Cc1c(-c2ccc(O)cc2)n(Cc2ccc(OCCN3CCCCC3)cc2)c2ccc(O)cc12 [Pipendoxifene] ; field requested: concentration at 8 h
Reply text: 561

###

assay: in vivo; settings: male, Sprague-Dawley, rat, po, Mean Tmax (plasma), range
OBSERVATION TYPE: Tmax

Inquiry: Query (molecule): Cc1c(-c2ccc(O)cc2)n(Cc2ccc(OCCN3CCCCC3)cc2)c2ccc(O)cc12 [Pipendoxifene] ; field requested: Tmax
Reply text: 5.3 to 6 h

###

test: Pharmacokinetics (plasma, lung at 24 h) after single oral dosing in male Sprague-Dawley rats; conditions: male, Sprague-Dawley, rat, plasma, po, 1000 mg/kg, Plasma concentration, male SD rat, single oral 1000 mg/kg (Group 4), all data included, 6 hr, individual rats 459, 460, 461
OBSERVATION TYPE: concentration at 6 h (ng/mL)
Numbers only here, please. The scale is ng/mL.

Inquiry: Query (molecule): Cc1c(-c2ccc(O)cc2)n(Cc2ccc(OCCN3CCCCC3)cc2)c2ccc(O)cc12 [Pipendoxifene] ; field requested: concentration at 6 h
Reply text: 365

###

assay: Pharmacokinetics (plasma and lung tissue) after single and 5-day repeat oral dosing in female 129S1 mice; conditions: female, 129S1, mouse, in vivo, po, 50 mg/kg, AUC∞, plasma; 50 mg/kg PO multiple, 5-day, dose
OBSERVATION TYPE: AUC(0-inf) (ng·h/mL)
Numbers only here, please. The scale is ng·h/mL.

Inquiry: Query (compound): Cc1c(-c2ccc(O)cc2)n(Cc2ccc(OCCN3CCCCC3)cc2)c2ccc(O)cc12 [Pipendoxifene] ; field requested: AUC(0-inf)
Reply text: 1400

###

experiment: in vivo; conditions: male, Sprague-Dawley, rat, po, 1000 mg/kg, Plasma concentration
OBSERVATION TYPE: concentration at 6 h (ng/mL)
Numbers only here, please. The scale is ng/mL.

Inquiry: Query (compound): Cc1c(-c2ccc(O)cc2)n(Cc2ccc(OCCN3CCCCC3)cc2)c2ccc(O)cc12 [Pipendoxifene] ; field requested: concentration at 6 h
Reply text: 489

###

test: Pharmacokinetics (plasma and lung tissue) after single and 5-day repeat oral dosing in female 129S1 mice; conditions: female, 129S1, mouse, in vivo, po, 50 mg/kg, tmax, plasma; 50 mg/kg PO single dose
OBSERVATION TYPE: Tmax (h)
Numbers only here, please. The scale is h.

Inquiry: Query (molecule): Cc1c(-c2ccc(O)cc2)n(Cc2ccc(OCCN3CCCCC3)cc2)c2ccc(O)cc12 [Pipendoxifene] ; field requested: Tmax
Reply text: 2

###

test: Pharmacokinetics (plasma, lung at 24 h) after single oral dosing in male Sprague-Dawley rats; details: male, Sprague-Dawley, rat, in vivo, po, 500 mg/kg, AUC∞, male SD rat plasma, single oral 500 mg/kg (Group 2), mean
OBSERVATION TYPE: AUC(0-inf) (ng·h/mL)
Numbers only here, please. The scale is ng·h/mL.

Inquiry: Query (molecule): Cc1c(-c2ccc(O)cc2)n(Cc2ccc(OCCN3CCCCC3)cc2)c2ccc(O)cc12 [Pipendoxifene] ; field requested: AUC(0-inf)
Reply text: 5850

###

assay: Pharmacokinetics (plasma, lung at 24 h) after single oral dosing in male Sprague-Dawley rats; conditions: male, Sprague-Dawley, rat, in vivo, po, 750 mg/kg, AUC∞, male SD rat plasma, single oral 750 mg/kg (Group 3), mean
OBSERVATION TYPE: AUC(0-inf) (ng·h/mL)
Numbers only here, please. The scale is ng·h/mL.

Inquiry: Query (compound): Cc1c(-c2ccc(O)cc2)n(Cc2ccc(OCCN3CCCCC3)cc2)c2ccc(O)cc12 [Pipendoxifene] ; field requested: AUC(0-inf)
Reply text: 5520

###

experiment: in vivo; conditions: female, 129S1, mouse
OBSERVATION TYPE: Kp

Inquiry: Query (molecule): Cc1c(-c2ccc(O)cc2)n(Cc2ccc(OCCN3CCCCC3)cc2)c2ccc(O)cc12 [Pipendoxifene] ; field requested: Kp
Reply text: ~50

###

test: in vivo; settings: female, 129S1, mouse, po, 50 mg/kg
OBSERVATION TYPE: Cmax at 5 day (ng/mL)
Numbers only here, please. The scale is ng/mL.

Inquiry: Query (compound): Cc1c(-c2ccc(O)cc2)n(Cc2ccc(OCCN3CCCCC3)cc2)c2ccc(O)cc12 [Pipendoxifene] ; field requested: Cmax at 5 day
Reply text: 178

###

assay: in vivo; conditions: female, 129/S, mouse, po, 250 mg/kg, L/P Ratio
OBSERVATION TYPE: Kp
// return a plain number; no unit text

Inquiry: Query (molecule): Cc1c(-c2ccc(O)cc2)n(Cc2ccc(OCCN3CCCCC3)cc2)c2ccc(O)cc12 [Pipendoxifene] ; field requested: Kp
Reply text: 4.04

###

experiment: Pharmacokinetics (plasma, lung at 24 h) after single oral dosing in male Sprague-Dawley rats; conditions: male, Sprague-Dawley, rat, in vivo, po, 500 mg/kg, tmax, male SD rat plasma, single oral 500 mg/kg (Group 2), individual rats 453, 454, 455
OBSERVATION TYPE: Tmax (h)
Numbers only here, please. The scale is h.

Inquiry: Query (molecule): Cc1c(-c2ccc(O)cc2)n(Cc2ccc(OCCN3CCCCC3)cc2)c2ccc(O)cc12 [Pipendoxifene] ; field requested: Tmax
Reply text: 8
